# GI50 per entry
# Test system: KM-20L2
# test_description: NCI tumour cell line growth inhibition, 48 h
Activity calls are given as the source filed them. No stated cut-off is given here; in the data, active = GI50 up to about 1.1 µM and inactive = higher.
quantity_kind: GI50

>>> value_reported("COc1ccc(N2C(=O)C3c4[nH]c5ccc(OC)cc5c4C4CCC(C(C)(C)C)CC4C3C2=O)cc1 (stereo unspecified)")
"86.9 µM (inactive)"
>>> value_reported("CC(=O)Nc1ccc(C(=O)NN2C(=O)C(Cl)C2c2ccccc2)cc1 (stereo unspecified)")
"> 100 µM (inactive)"
>>> value_reported("CN1CCN(c2nc(N)c(Br)c(Cl)n2)CC1")
"> 100 µM (inactive)"
>>> value_reported("Cc1cccc(C)c1N1C(=O)C(=O)C(c2nc3ccccc3s2)/C(=N\\N)C1=O (stereo unspecified)")
"> 100 µM (inactive)"
>>> value_reported("Cc1nnc2n1N=C(CC(=O)c1ccc(O)cc1O)CN2N")
"> 100 µM (inactive)"
>>> value_reported("O/N=C(\\c1ccccc1)N1CCCCC1")
"> 100 µM (inactive)"
